Read-out: Fatty Acid-Binding Protein 1 (FABP1), FABP1 (gene 2168)
Assay: LTEA_HepaRG_FABP1: Life Technologies and Expression Analysis (LTEA) Assay for Fatty Acid-Binding Protein 1 (FABP1) using HepaRG (AID 2283494)
Conditions: mRNA level, 48 h; actives raise or lower the signal
The source made the active and inactive calls. How the source made its calls: active means hit-call score of the fitted dose curve at least 0.9, where 1 is the maximum; inactive means score below 0.9.
Pick one and only one: yes = active, no = inactive

O=C1C2CC=CCC2C(=O)N1SC(Cl)(Cl)Cl (configuration not stated): no
CC(C)Nc1nc(Cl)nc(NC(C)C)n1: yes
CC(C)C1(C)N=C(c2ncccc2C(=O)O)NC1=O (configuration not stated): no

Lab log entry: CCN(CC)C(=O)C(C)Oc1cccc2ccccc12 (configuration not stated) — outcome as called in the assay?
yes

Lab log entry: `CCN(CC)c1nc(C)cc(OP(=S)(OC)OC)n1` — outcome as called in the assay?
yes

So what was the verdict on `CC(C)NC(=O)N1CC(=O)N(c2cc(Cl)cc(Cl)c2)C1=O` in this test?
yes

# outcome recorded in this test, key = `Clc1nc(Cl)nc(Nc2ccccc2Cl)n1`
no

----------
Read-out: Human Leukocyte Antigen - DR isotype (HLADR), HLA-DRA (gene 3122)
Test: BSK_3C_HLADR: BioMAP Diversity Plus: 3C Assay for Human Leukocyte Antigen - DR isotype (HLADR) Biomarker Activity (AID 2283019);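 on Outcome: ELISA of cell-surface HLA-DR on HUVEC 24 h after dosing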
Details: primary human endothelial cells (HUVEC); actives raise or lower the signal
Activity calls are given as the source filed them. The calls were made as follows: active = hit-call score of the fitted dose curve at least 0.9, where 1 is the maximum; inactive = score below 0.9.
Outcome field: choose from active, inactive

Worked examples, 10 compounds total:
N#Cc1c(Cl)cccc1Cl: active
CC(C)Oc1cccc(NC(=O)c2ccccc2C(F)(F)F)c1: inactive
CO/N=C(/C1=NOCCO1)c1ccccc1Oc1ncnc(Oc2ccccc2Cl)c1F: active
Nc1cnn(-c2ccccc2)c(=O)c1Cl: inactive
CS(=O)(=O)c1ccc(C(=O)C2C(=O)CCCC2=O)c([N+](=O)[O-])c1: inactive
COC(=O)c1c(C(F)F)nc(C(F)(F)F)c(C2=NCCS2)c1CC(C)C: active
Cc1c(COC(=O)[C@@H]2[C@H](/C=C(\Cl)C(F)(F)F)C2(C)C)cccc1-c1ccccc1: active
Clc1nc(Cl)nc(Nc2ccccc2Cl)n1: inactive
COc1cc(Cl)c(OC)cc1Cl: inactive
CC1(C)CON(Cc2ccccc2Cl)C1=O: inactive

Hi, do you know how CC1(C)C(C(=O)OC(C#N)c2cccc(Oc3ccccc3)c2)C1(C)C (configuration not stated) came out in this test?
inactive

Recorded test outcome, item `O=c1n(Cl)c(=O)n(Cl)c(=O)n1Cl`
active

----------
Read-out: Interferon-gamma inducible Protein 10 (IP10), CXCL10 (gene 3627)
Assay: BSK_KF3CT_IP10: BioMAP Diversity Plus: KF3CT Assay for Interferon-gamma inducible Protein 10 (IP10) Biomarker Activity (AID 2283068)
Conditions: primary human keratinocytes with fibroblasts; actives raise or lower the signal
Active and inactive are the calls of the source. The calls were made as follows: active = hit-call score of the fitted dose curve at least 0.9, where 1 is the maximum; inactive = score below 0.9.
Parameter Measured: outcome

Below, each entry is followed by its recorded outcome result.
CNC(=O)Oc1cccc2ccccc12: inactive
CSC(=O)c1c(C(F)F)nc(C(F)(F)F)c(C(=O)SC)c1CC(C)C: inactive
COc1ccc(-c2ccccc2)cc1NNC(=O)OC(C)C: inactive
CC1(C)C(C=C(Cl)Cl)C1C(=O)OC(C#N)c1cccc(Oc2ccccc2)c1 (configuration not stated): inactive
CNC(=O)N(C)c1nnc(C(C)(C)C)s1: inactive
CC1(C)CCC(=Cc2ccc(Cl)cc2)C1(O)Cn1cncn1 (configuration not stated): inactive

Returns the measured outcome for the input molecule. Input: `CS(=O)(=O)c1cc(C(F)(F)F)ccc1C(=O)c1cnoc1C1CC1`
inactive

State the recorded outcome for this entry: `N#CN=C1SCCN1Cc1ccc(Cl)nc1`
inactive

Could you tell me which outcome is on file for COCC(C)N(C(=O)CCl)c1c(C)csc1C (configuration not stated) ?
inactive

I am curious: what outcome value has been reported for `CCOP(=S)(OCC)Oc1nc(Cl)n(C(C)C)n1` ?
inactive

What outcome value was documented for this molecule, `COc1cc(Cl)c(OC)cc1Cl` ?
inactive

Need outcome of CCN(CC)C(=O)C(C)Oc1cccc2ccccc12 (configuration not stated) , thanks.
inactive
